Source of measurements: PubChem BioAssay (NCI)

Tested on: RPMI-8226 leukemia
assay.protocol: NCI tumour cell line growth inhibition, 48 h
Below is a list of entries, each paired with its recorded TGI value.
// note: answer is a bare numeric in µM

Recorded TGI, per entry:
>  <compound>
COC(=O)CCCc1ccc2c(c1)CC1(Cc3ccccc3C1)C2

>  <reported.measurement>
85.5

$$$$
>  <compound>
Cc1cc(=O)[nH]c(NN2C(Cl)C(=O)C2c2ccc(O)cc2)n1 (stereo unspecified)

>  <reported.measurement>
5.59

$$$$
>  <compound>
COc1cc(/C=C2\CCC(C)C3=C(c4cc(OC)c(OC)c(OC)c4)C(C#N)=C(N)OC32)cc(OC)c1OC (stereo unspecified)

>  <reported.measurement>
6.08

$$$$
>  <compound>
O=c1c2sc3ccccc3c2nnn1-c1ccc(F)c(Cl)c1

>  <reported.measurement>
41.4

$$$$
>  <compound>
O=[N+]([O-])c1ccc(-c2nc(/C=N/N3CCCCC3)cs2)o1

>  <reported.measurement>
39.8

$$$$

Would you mind telling me what TGI value was observed for C[C@]12CC[C@H](O)C[C@@H]1CC[C@@H]1[C@@H]2CC[C@]2(C)[C@@H](c3cc(C(F)(F)F)n[nH]3)CC[C@@H]12 ?
22.7

What value of TGI has been recorded for this entry: COc1cc2c3c(n(CCCNCCCNCCCn4c5c(c6cc(OC)c(OC)cc6c4=O)C(=O)c4ccccc4-5)c(=O)c2cc1OC)-c1ccccc1C3=O
6.62

Could you share which TGI value was measured for Cc1cc(C)c(S(=O)(=O)N2CCN(c3cc4c(cc3F)c(=O)c(C(=O)O)cn4C3CC3)CC2)c(C)c1 ?
6.83

Requested field: TGI. Item: COc1ccc2c(c1)-c1c(c3cc(OC)ccc3n1CCN1CCOCC1)CC2
85.5

----------
Test system: SF-295 CNS
assay.protocol: NCI tumour cell line growth inhibition, 48 h
value.type: TGI

Please review the following examples before continuing.
>  <compound>
COC(=O)CCCc1ccc2c(c1)CC1(Cc3ccccc3C1)C2

>  <value.type>
TGI

>  <reported.measurement>
> 100 µM

$$$$
>  <compound>
NCCSCC(N)C(=O)O (stereo not drawn)

>  <value.type>
TGI

>  <reported.measurement>
> 497 µM

$$$$

Now look at this one.
Recorded TGI for COc1cc2c(cc1OCCCCOc1cc3nc(C)nc(Cl)c3cc1OC)N=C[C@@H]1CCCN1C2=O , please?
6.76 µM

----------
Test system: NCI-H226 lung
assay.protocol: NCI tumour cell line growth inhibition, 48 h
value.type: GI50

Use the examples below as a reference point.
>  <compound>
CCCCCCCCCCCCCCNc1nc(C(=O)OCC)ncc1-c1ccc(C(F)(F)F)cc1

>  <GI50>
> 100000 nM

$$$$
>  <compound>
Clc1ccc(CN2COc3c(ccc4cccnc34)C2)cc1Cl

>  <GI50>
1280 nM

$$$$
>  <compound>
N#Cc1ccccc1C#C/C=C\C#Cc1cccs1

>  <GI50>
47000 nM

$$$$
>  <compound>
O=C(O)[C@@H]1CCCN1Cc1cc2cc3c(cc2c2cc(OCc4ccccc4)ccc12)OCO3

>  <GI50>
21800 nM

$$$$
>  <compound>
COc1ccc2oc(=O)cc(C3c4ccc([nH]4)C(c4cc(=O)oc5ccc(OC)cc45)c4ccc([nH]4)C(c4cc(=O)oc5ccc(OC)cc45)c4ccc([nH]4)C(c4cc(=O)oc5ccc(OC)cc45)c4ccc3[nH]4)c2c1 (configuration not stated)

>  <GI50>
1360 nM

$$$$

# query: GI50 of entry O=c1cc(N2CCOCC2)oc2c(-c3ccc4c(c3)OCCO4)csc12
492 nM

What GI50 value was documented for this compound, Cc1c(-c2ccc(O)c(O)c2)oc(=O)c2c(O)cc(O)cc12 ?
21300 nM

Requested field: GI50. Item: O=C(CC1(O)C(=O)N(Cc2ccccc2)c2ccc(Br)cc21)c1ccc(C(=O)NCC2CCC3(CC2)OOC2(CCCCC2)OO3)cc1 (configuration not stated)
5060 nM

----------
System: SK-OV-3 ovarian
assay.protocol: NCI tumour cell line growth inhibition, 48 h
value.type: log10(TGI) (log10 of the value in µM)
A difference of one corresponds to tenfold TGI; all values are log10 with TGI in µM.

Before answering, review these 3 worked examples.
>  <compound>
COc1nc(SC)nc2c1C(O)n1c(nc3ccccc31)S2 (configuration not stated)

>  <reported.measurement>
1.83

$$$$
>  <compound>
c1ccc2c(c1)Sc1ccccc1N2CC1CN2CCC1CC2 (configuration not stated)

>  <reported.measurement>
1.41

$$$$
>  <compound>
Cc1nc2c(n1-c1ccc(Br)cc1)C(=O)c1ccccc1C2=O

>  <reported.measurement>
1.99

$$$$

Return log10(TGI) measured with SK-OV-3 ovarian given this compound: C=C1CC[C@@H]2C(C)(C)C(O)CCC2(C)C1COc1ccc2ccc(=O)oc2c1 (some centres not stated)
1.74

Item C=C1C2CC[C@@](C)(O)C2[C@H]2OC(=O)C(=C)[C@@H]2C[C@H]1O (some centres not stated) with SK-OV-3 ovarian - log10(TGI)?
1.90

----------
Tested on: PC-3 prostate
assay.protocol: NCI tumour cell line growth inhibition, 48 h
value.type: TGI

Below are worked cases with known answers.
>  <compound>
O=c1c2c3c(sc2n2c(CCl)nnc2n1Cc1ccccc1)CCCC3

>  <TGI>
4.01 µM

$$$$
>  <compound>
COc1cc2c(c(OC)c1)C(C)=NC(C)C2 (configuration not stated)

>  <TGI>
> 100 µM

$$$$
>  <compound>
C/C1=C/C2OC(=O)C3(C)C2C(CC2(C)OC1=CC2=O)OC3(O)C(C)C (configuration not stated)

>  <TGI>
> 100 µM

$$$$

What does the record list as TGI for CCC(=O)Oc1cc(/C=C/C(=O)O[C@H]2C[C@H]3CN4CCc5c([nH]c6cc(OC)ccc56)[C@@H]4C[C@@H]3[C@@H](C(=O)OC)[C@@H]2OC)ccc1OC ?
> 100 µM

----------
Test system: NCI-H23 lung
assay.protocol: NCI tumour cell line growth inhibition, 48 h
Note to self: values exactly at 10 µM are 1 (yes). So TGI at or above 10 µM is 1 (yes), below is 0 (no).

// inclusive: TGI at least 10 µM? input: CC(C)(C)c1cc(COc2cc(COc3ccc(-c4c5c(nc6c4CCc4ccc(-c7c8ccccc8nc8ccccc78)cc4-6)-c4cc(-c6c7ccccc7nc7ccccc67)ccc4CC5)cc3)cc(OCc3cc(C(C)(C)C)cc(C(C)(C)C)c3)c2)cc(C(C)(C)C)c1
1 (yes)

Threshold query (TGI >= 10 µM) on C=C(CC[C@@H](C)[C@H]1CC[C@H]2[C@@H]3C[C@@H](O)[C@H]4C[C@@H](O)CC[C@]4(CO)[C@H]3CC[C@]12C)C(C)C
1 (yes)

Assess whether reported TGI for COC1CC(OC)C2OC(c3ccccc3)OCC2O1 (stereo unspecified) sits at 10 µM or higher.
1 (yes)

----------
System: OVCAR-4 ovarian
assay.protocol: NCI tumour cell line growth inhibition, 48 h
value.type: TGI

Some solved cases for reference:
>  <record.smiles>
C=CCN1C(=O)C(=O)N(CC=C)C(=O)C1=O

>  <reported.measurement>
> 100 µM

$$$$
>  <record.smiles>
CCCOc1cc2c(cc1O)CC[C@@H]1[C@@H]2CC[C@]2(C)[C@@H](O)CC[C@@H]12

>  <reported.measurement>
> 65.5 µM

$$$$

Shift focus to the following entry.
If you can, please state the reported TGI value of CC(=O)CC1(O)C(=O)c2c(Br)sc(Br)c2C1=O .
36.4 µM

----------
Tested on: DU-145 prostate
assay.protocol: NCI tumour cell line growth inhibition, 48 h
Reported TGI values follow for various compounds
Field: numeric (µM). Do not append units.

Return reported TGI; argument: O=C(CC1(O)C(=O)N(Cc2ccccc2)c2ccc(Br)cc21)c1ccc(C(=O)NCC2CCC3(CC2)OOC2(CCCCC2)OO3)cc1 (stereo not given)
0.354

Item CCOC(=O)C(C(N)=O)c1nc2cc([N+](=O)[O-])ccc2nc1/C=C(\O)c1ccccc1 (stereo not given) has what recorded TGI?
31

Looking for the measured TGI of CCCCCc1c(Cl)nc(Cl)nc1Cl , can you help?
45.5

----------
Test system: EKVX NSCLC
assay.protocol: NCI tumour cell line growth inhibition, 48 h
value.type: TGI

Reference set (5 entries):
>  <molecule>
OC(c1ccc(F)cc1)(c1ccc(F)cc1)C1CC1

>  <TGI>
96.2 µM

$$$$
>  <molecule>
O=C(CCl)Nc1ccc2c(Nc3cc(O)ccc3Cl)ncnc2c1

>  <TGI>
6.87 µM

$$$$
>  <molecule>
CC1=Nc2c(N)nc(N)nc2N(C)C1

>  <TGI>
> 100 µM

$$$$
>  <molecule>
c1ccc2c(c1)Sc1ccccc1N2CC1CN2CCC1CC2 (stereo unspecified)

>  <TGI>
24.3 µM

$$$$
>  <molecule>
COc1cc2c(cc1OCCCCOc1cc3nc(C)nc(Cl)c3cc1OC)N=C[C@@H]1CCCN1C2=O

>  <TGI>
19.4 µM

$$$$

Give the measured TGI of CC(C)(C)C1CCC2c3c([nH]c4ccccc34)C3C(=O)N(c4ccc(C(=O)O)cc4)C(=O)C3C2C1 (stereo unspecified) .
39.7 µM
